System: U87MG cells
test-name: Antiproliferative activity, 2D monolayer, SRB assay
Assay type: cell-based, human
measurement-conditions: U87MG 2D monolayer; 90 min treatment, 30 min blue light 420 nm 58 W m-2, 70 h drug-free; SRB; read-out: IC50 2D Irradiated
property-label: IC50
Give your result as the value with the unit written after it.

Lab note: need IC50 for Cc1ccc(-c2cc3[n+]4c(c2)-c2cccc[n+]2[Ir-3]42([Cl])([c]4c(ccc5c4OCO5)-c4n(Cc5ccc(C(F)(F)F)cc5)c5ccccc5[n+]42)[n+]2ccccc2-3)cc1.F[P-](F)(F)(F)(F)F on U87MG cells, anyone have it? 420 nM

Lab note: need IC50 for Cc1ccc(-c2cc3[n+]4c(c2)-c2cccc[n+]2[Ir-3]42([Cl])([c]4ccsc4-c4n(C)c5ccccc5[n+]42)[n+]2ccccc2-3)cc1.F[P-](F)(F)(F)(F)F on U87MG cells, anyone have it? 800 nM

Lab note: need IC50 for Cc1ccc(-c2cc3[n+]4c(c2)-c2cccc[n+]2[Ir-3]42([Cl])([c]4ccccc4-c4n(Cc5ccc(C(F)(F)F)cc5)c5ccccc5[n+]42)[n+]2ccccc2-3)cc1.F[P-](F)(F)(F)(F)F on U87MG cells, anyone have it? 430 nM

Lab note: need IC50 for Cc1ccc(-c2cc3[n+]4c(c2)-c2cccc[n+]2[Ir-3]42([Cl])([c]4c(ccc5c4OCO5)-c4n(C)c5ccccc5[n+]42)[n+]2ccccc2-3)cc1.F[P-](F)(F)(F)(F)F on U87MG cells, anyone have it? 1300 nM

Lab note: need IC50 for Cc1ccc(-c2cc3[n+]4c(c2)-c2cccc[n+]2[Ir-3]42([Cl])([c]4ccsc4-c4n(Cc5ccc(C(F)(F)F)cc5)c5ccccc5[n+]42)[n+]2ccccc2-3)cc1.F[P-](F)(F)(F)(F)F on U87MG cells, anyone have it? 1300 nM

Lab note: need IC50 for Cc1ccc(-c2cc3[n+]4c(c2)-c2cccc[n+]2[Ir-3]42([Cl])([c]4cc5ccccc5cc4-c4n(C)c5ccccc5[n+]42)[n+]2ccccc2-3)cc1.F[P-](F)(F)(F)(F)F on U87MG cells, anyone have it? 1500 nM

Lab note: need IC50 for Cc1ccc(-c2cc3[n+]4c(c2)-c2cccc[n+]2[Ir-3]42([Cl])([c]4ccccc4-c4n(C)c5ccccc5[n+]42)[n+]2ccccc2-3)cc1.F[P-](F)(F)(F)(F)F on U87MG cells, anyone have it? 1000 nM

Lab note: need IC50 for COC(=O)c1ccc2c(c1)[n+]1c(n2Cc2ccc(C(F)(F)F)cc2)-c2cccc[c]2[Ir-3]123([Cl])[n+]1ccccc1-c1cc(-c4ccc(C)cc4)cc([n+]12)-c1cccc[n+]13.F[P-](F)(F)(F)(F)F on U87MG cells, anyone have it? 2200 nM

Lab note: need IC50 for Cc1ccc(-c2cc3[n+]4c(c2)-c2cccc[n+]2[Ir-3]42([Cl])([c]4cc5ccccc5cc4-c4n(Cc5ccc(C(F)(F)F)cc5)c5ccccc5[n+]42)[n+]2ccccc2-3)cc1.F[P-](F)(F)(F)(F)F on U87MG cells, anyone have it? 670 nM

Lab note: need IC50 for CCCCn1c2[n+](c3cc(C(=O)OC)ccc31)[Ir-3]13([Cl])([c]4ccccc4-2)[n+]2ccccc2-c2cc(-c4ccc(C)cc4)cc([n+]21)-c1cccc[n+]13.F[P-](F)(F)(F)(F)F on U87MG cells, anyone have it? 520 nM
